System: MOLT-4 leukemia
Assay overview: NCI tumour cell line growth inhibition, 48 h
Exercise: state measured TGI for each of the molecules provided.

**Q:** Return TGI (reported value) for this molecule: COC(=O)C1=C(O)C(C(=O)OC)[C@]2(O)[C@H](C(=O)OC)[C@H]1C[C@@H](c1c(Cl)cccc1Cl)[C@H]2C(=O)OC (stereo partly drawn)
**A:** 5.31 µM

**Q:** Return TGI (reported value) for this molecule: `COc1cc(/C=C/C(=O)c2ccc(NC(=O)CN3CCN(c4cc5c(cc4F)c(=O)c(C(=O)O)cn5C4CC4)CC3)cc2)cc(OC)c1OC`
**A:** > 100 µM

**Q:** Return TGI (reported value) for this molecule: `c1cc(CNCCN2CCNCC2)ccn1`
**A:** > 100 µM

**Q:** Return TGI (reported value) for this molecule: `O=C(/C=C/c1cc(O)c(O)cc1O)OCCc1ccccc1`
**A:** 11.7 µM

**Q:** Return TGI (reported value) for this molecule: `S=c1cc(S)sc2c1c(=S)sc1nc3ccccn3c(=S)c12`
**A:** > 100 µM

**Q:** Return TGI (reported value) for this molecule: CC(=Nc1ccccc1)C1=C(O)C(Cc2ccccc2)NC1=O (stereo not drawn)
**A:** > 100 µM

**Q:** Return TGI (reported value) for this molecule: `O=c1oc2cc(O)ccc2c(O)c1C(c1cccnc1)c1c(O)c2ccc(O)cc2oc1=O`
**A:** > 100 µM

**Q:** Return TGI (reported value) for this molecule: CC1OC(OC2C(O[C@H]3CC[C@@]4(C)C(=CC[C@H]5[C@@H]6C[C@@H]7O[C@]8(CC[C@H](C)CN8)[C@@H](C)[C@@H]7[C@@]6(C)CC[C@@H]54)C3)OC(CO)C(O)C2OC2OC(CO)C(O)C(O)C2O)C(O)C(O)C1O (stereo partly drawn)
**A:** 42.1 µM

----------
Test system: U251 CNS
Assay overview: NCI tumour cell line growth inhibition, 48 h
Measured property: TGI (µM)
Could you give me the number in µM? Just the number is fine.

**Q:** Consider the compound N=C(N)SCc1ccc(Cl)cc1Cl (tested in a mixture with another compound) tested on U251 CNS; state its TGI.
**A:** 28.5

**Q:** Consider the compound `Cc1ccc(O)c(-c2cc(-c3cccc(Cl)c3)c(C#N)c(N)n2)c1` tested on U251 CNS; state its TGI.
**A:** 30

**Q:** Consider the compound O=C(CC1(O)C(=O)Nc2c(Cl)cc(Cl)cc21)c1cccc2ccccc12 (stereo not given) tested on U251 CNS; state its TGI.
**A:** 29.2

**Q:** Consider the compound `COc1cc(/C=C/C(=O)c2ccc(NC(=O)CN3CCN(c4cc5c(cc4F)c(=O)c(C(=O)O)cn5C4CC4)CC3)cc2)cc(OC)c1OC` tested on U251 CNS; state its TGI.
**A:** 1.47

**Q:** Consider the compound `CN1CCN(c2ccc3nc(-c4ccc5nc(-c6ccc(OCCC(C)(C)C)cc6)[nH]c5c4)[nH]c3c2)CC1` tested on U251 CNS; state its TGI.
**A:** 3.81

**Q:** Consider the compound CC1(Cl)CCC2(CC(Br)=CC3OC32C)CC1Br (stereo not given) tested on U251 CNS; state its TGI.
**A:** 41.8

**Q:** Consider the compound COCOc1c(C(O[Si](C)(C)C(C)(C)C)c2cnc(Sc3ccccc3)n2C)ccc(OC)c1OC (stereo not given) tested on U251 CNS; state its TGI.
**A:** 3.1

Where do these numbers come from? They come from PubChem BioAssay (NCI).
